assay_system: hMC4R (Homo sapiens, UniProt P32245)
Construct: Flag; expressed in transfected cells
Sequence (P32245 whole entry, looked up): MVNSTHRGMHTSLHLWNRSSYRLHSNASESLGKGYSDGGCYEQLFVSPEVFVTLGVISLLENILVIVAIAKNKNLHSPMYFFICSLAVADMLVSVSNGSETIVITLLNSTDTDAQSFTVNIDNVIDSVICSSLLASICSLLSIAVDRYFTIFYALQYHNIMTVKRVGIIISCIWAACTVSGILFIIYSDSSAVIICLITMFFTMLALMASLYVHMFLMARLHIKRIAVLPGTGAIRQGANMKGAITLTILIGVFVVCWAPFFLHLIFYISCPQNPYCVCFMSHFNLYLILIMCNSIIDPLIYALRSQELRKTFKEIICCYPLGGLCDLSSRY
assay_procedure: β-Arrestin Recruitment | EC50 (nM)
Square brackets hold non-standard residues; d marks the D form. Peptide text beside a SMILES is read from it.
reported_metric: pEC50
To interpret pEC50, take it as minus log10 of a concentration measured in moles per litre.

CC(=O)N[C@@H](Cc1c[nH]cn1)C(=O)N[C@H](Cc1ccccc1)C(=O)N[C@@H](CCCNC(=N)N)C(=O)N[C@@H](Cc1c[nH]c2ccccc12)C(=O)N1CCC[C@H]1C(=O)NCC(=O)N1CCC[C@H]1C(=O)NCC(=O)N1CCC[C@H]1C(=O)NCC(=O)N1CCC[C@H]1C(=O)NCC(=O)N1CCC[C@H]1C(=O)NCC(=O)N1CCC[C@H]1C(=O)NCC(=O)N[C@@H](Cc1c[nH]cn1)C(=O)N[C@H](Cc1ccccc1)C(=O)N[C@@H](CCCNC(=N)N)C(=O)N[C@@H](Cc1c[nH]c2ccccc12)C(N)=O [CJL-1-31] (Ac-H[dF]RWPGPGPGPGPGPGH[dF]RW-NH2) :: 5.72

GET /values?readout=pEC50&item= N=C(N)NCCC[C@H](NC(=O)[C@@H](Cc1ccccc1)NC(=O)[C@H](Cc1c[nH]cn1)NC(=O)CNC(=O)[C@@H]1CCCN1C(=O)CNC(=O)[C@@H]1CCCN1C(=O)CNC(=O)[C@@H]1CCCN1C(=O)CNC(=O)[C@@H]1CCCN1C(=O)CNC(=O)[C@@H]1CCCN1C(=O)CNC(=O)[C@@H]1CCCN1)C(=O)N[C@@H](Cc1c[nH]c2ccccc12)C(N)=O [CJL-1-41, (Pro-Gly)6-His-DPhe-Arg-Trp-NH2] (H-PGPGPGPGPGPGH[dF]RW-NH2; N-terminus assumed)
5.82
